Hey, just so you know, these numbers are from patent US20170291939A1.

Collected IC50, huGROα secretion by BJ cells; rhuIL-17A (0.5 nM) values appear next to each entry.
# Study System: T1, recombinant huIL-17A (SEQ ID NO: 76) (human, UniProt Q16552 24-155, limits assumed)
# T1 sequence: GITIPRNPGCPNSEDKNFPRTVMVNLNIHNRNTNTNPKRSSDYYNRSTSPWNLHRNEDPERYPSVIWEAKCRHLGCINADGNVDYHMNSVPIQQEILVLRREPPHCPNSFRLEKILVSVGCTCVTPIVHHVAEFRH
# Assay Remarks: cell-based or functional assay
Measure: IC50, huGROα secretion by BJ cells; rhuIL-17A (0.5 nM)

{"columns": ["Binder", "Result Number"],
 "data": [
  ["XAB3 (antibody, human IgG1, kappa, V domains shown) VH: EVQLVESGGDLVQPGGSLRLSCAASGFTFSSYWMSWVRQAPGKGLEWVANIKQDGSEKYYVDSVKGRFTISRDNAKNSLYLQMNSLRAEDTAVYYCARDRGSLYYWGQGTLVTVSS VL: AIQLTQSPSSLSASVGDRVTITCRPSQGIYWELAWYQQKPGKAPKLLIYDASSLEQGVPSRFSGSGSGTDFTLTISSLQPEDFATYYCQQFNSYPLTFGGGTKVEIKR", 0.42],
  ["XAB1 (antibody, human IgG1, kappa, V domains shown) VH: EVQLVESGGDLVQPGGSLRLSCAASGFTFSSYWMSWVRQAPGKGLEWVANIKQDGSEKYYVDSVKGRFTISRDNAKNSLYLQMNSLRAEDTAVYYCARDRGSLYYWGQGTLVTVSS VL: AIQLTQSPSSLSASVGDRVTITCRPSQGIISALAWYQQKPGKAPKLLIYDASSLENGVPSRFSGSGSGTDFTLTISSLQPEDFATYYCQQFNSYPLTFGGGTKVEIKR", 1.39]
]}
